Protein target, amino acids: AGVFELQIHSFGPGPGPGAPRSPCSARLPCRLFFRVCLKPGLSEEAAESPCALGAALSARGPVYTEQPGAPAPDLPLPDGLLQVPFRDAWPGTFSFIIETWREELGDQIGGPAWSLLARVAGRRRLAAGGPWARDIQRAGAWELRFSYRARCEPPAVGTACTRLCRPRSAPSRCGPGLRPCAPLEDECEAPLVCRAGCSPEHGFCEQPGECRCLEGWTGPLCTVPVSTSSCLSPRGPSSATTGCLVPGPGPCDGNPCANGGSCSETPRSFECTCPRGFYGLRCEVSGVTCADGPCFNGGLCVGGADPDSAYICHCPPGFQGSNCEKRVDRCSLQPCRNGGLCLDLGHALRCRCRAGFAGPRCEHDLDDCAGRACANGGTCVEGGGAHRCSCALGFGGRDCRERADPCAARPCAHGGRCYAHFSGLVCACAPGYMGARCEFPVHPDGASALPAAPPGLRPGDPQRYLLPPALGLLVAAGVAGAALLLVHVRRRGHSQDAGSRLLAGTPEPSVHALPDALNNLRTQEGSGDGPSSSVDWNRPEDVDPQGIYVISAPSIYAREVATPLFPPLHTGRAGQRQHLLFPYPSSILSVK
Bridge positions count the residues as written; N and C are the ends. Square brackets hold non-standard residues; d marks the D form. Peptide text beside a SMILES is read from it. * marks the point of attachment. DOTA = O=C(O)CN1CCN(CC(=O)O)CCN(CC(=O)*)CCN(CC(=O)O)CC1; Ahx = NCCCCCC(=O)O
measuredMetric: pKd
On this scale, pKd is minus log10 of a concentration expressed in M (mol/L).

For this compound ( CC(=O)N[C@H](C)C(=O)N[C@@H](CO)C(=O)N[C@@](C)(CC(=O)O)C(=O)N[C@H]1C/C=C/C[C@@H](C(=O)N2CCC[C@@]2(C)C(=O)N[C@@H](Cc2ccccc2)C(=O)N[C@@H](CC(=O)O)C(N)=O)NC(=O)[C@H](CC(N)=O)NC(=O)[C@H](Cc2ccc3ccccc3c2)NC(=O)[C@H](Cc2ccc(CNC(=O)CN3CCN(CC(=O)O)CCN(CC(=O)O)CCN(CC(=O)O)CC3)cc2)NC(=O)[C@H](CC(C)(C)C)NC(=O)[C@H](Cc2cccc3ccccc23)NC1=O (single isomer, unassigned) [Cpd #193] ), measured pKd is 9.95

The recorded pKd for entry CC(=O)NCCCCCC(=O)N[C@@H](CO)C(=O)N[C@@H](CC(=O)O)C(=O)N[C@H]1CSSC[C@@H](C(=O)N2CCC[C@H]2C(=O)N[C@@H](Cc2ccccc2)C(=O)N[C@@H](CC(=O)O)C(=O)N[C@H](CCCCNC(=O)CN2CCN(CC(=O)O)CCN(CC(=O)O)CCN(CC(=O)O)CC2)C(N)=O)NC(=O)[C@H](CC(N)=O)NC(=O)[C@H](Cc2c[nH]c3ccccc23)NC(=O)[C@H](CCC(N)=O)NC(=O)[C@H](CC(C)C)NC(=O)[C@H](Cc2c[nH]c3ccccc23)NC1=O [compound 74] (Ac-[Ahx]SDCWLQWNCPFD[dK](DOTA)-NH2; disulfide 4-10) equals 8.05

----------
# studyTarget: human DLL3 (Homo sapiens, UniProt Q9NYJ7)
pKd: −log10 of the molar value. Bridge positions count the residues as written; N and C are the ends. Square brackets hold non-standard residues; d marks the D form. Peptide text beside a SMILES is read from it. * marks the point of attachment. DOTA = O=C(O)CN1CCN(CC(=O)O)CCN(CC(=O)*)CCN(CC(=O)O)CC1; Bip = N[C@@H](Cc1ccc(-c2ccccc2)cc1)C(=O)O; Ahx = NCCCCCC(=O)O
measuredMetric: pKd

Entry CC(C)C[C@@H]1NC(=O)[C@H](Cc2c[nH]c3ccccc23)NC(=O)[C@@H](NC(=O)[C@H](CC(=O)O)NC(=O)[C@H](CO)NC(=O)CCCCCNC(=O)CN2CCN(CC(=O)O)CCN(CC(=O)O)CCN(CC(=O)O)CC2)CSSC[C@@H](C(=O)N2CCC[C@H]2C(=O)N[C@@H](Cc2ccc(-c3ccccc3)cc2)C(=O)N[C@@H](CC(=O)O)C(N)=O)NC(=O)[C@H](CC(N)=O)NC(=O)[C@H](Cc2c[nH]c3ccccc23)NC(=O)[C@H](CCC(N)=O)NC1=O [compound 38] ({DOTA-Ahx}-SDCWLQWNCP[Bip]D-NH2; disulfide 3-9) ; assay system human DLL3 (Homo sapiens, UniProt Q9NYJ7); pKd recorded at < 6.52

meta.source: patent US20250186541A1
